Quick reference for pIC50 among some compounds
- SUBJECT OF TEST: Recombinant Human His6-USP1/His6-UAF1 Complex Protein (Homo sapiens (Human))
- Sequence (O94782 whole entry): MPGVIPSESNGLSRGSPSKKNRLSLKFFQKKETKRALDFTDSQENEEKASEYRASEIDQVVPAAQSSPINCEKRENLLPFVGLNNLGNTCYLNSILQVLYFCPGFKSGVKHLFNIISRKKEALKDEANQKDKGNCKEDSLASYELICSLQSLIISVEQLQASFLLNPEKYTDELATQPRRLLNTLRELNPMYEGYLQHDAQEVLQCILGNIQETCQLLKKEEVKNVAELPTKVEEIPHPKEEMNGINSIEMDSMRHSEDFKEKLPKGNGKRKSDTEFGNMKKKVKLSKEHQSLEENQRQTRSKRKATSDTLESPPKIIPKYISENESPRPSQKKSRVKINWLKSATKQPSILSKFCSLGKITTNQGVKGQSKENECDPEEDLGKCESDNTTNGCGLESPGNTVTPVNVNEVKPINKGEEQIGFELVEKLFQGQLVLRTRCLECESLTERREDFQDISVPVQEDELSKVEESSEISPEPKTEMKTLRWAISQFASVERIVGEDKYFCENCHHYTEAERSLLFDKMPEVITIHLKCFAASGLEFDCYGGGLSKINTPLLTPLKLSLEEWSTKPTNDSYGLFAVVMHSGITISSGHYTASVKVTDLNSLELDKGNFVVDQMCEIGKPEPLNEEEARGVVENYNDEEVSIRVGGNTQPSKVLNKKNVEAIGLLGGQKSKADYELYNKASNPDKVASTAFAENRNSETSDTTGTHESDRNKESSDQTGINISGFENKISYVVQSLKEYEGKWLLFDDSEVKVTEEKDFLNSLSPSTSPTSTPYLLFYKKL
- Sequence (Q8TAF3 whole entry partner): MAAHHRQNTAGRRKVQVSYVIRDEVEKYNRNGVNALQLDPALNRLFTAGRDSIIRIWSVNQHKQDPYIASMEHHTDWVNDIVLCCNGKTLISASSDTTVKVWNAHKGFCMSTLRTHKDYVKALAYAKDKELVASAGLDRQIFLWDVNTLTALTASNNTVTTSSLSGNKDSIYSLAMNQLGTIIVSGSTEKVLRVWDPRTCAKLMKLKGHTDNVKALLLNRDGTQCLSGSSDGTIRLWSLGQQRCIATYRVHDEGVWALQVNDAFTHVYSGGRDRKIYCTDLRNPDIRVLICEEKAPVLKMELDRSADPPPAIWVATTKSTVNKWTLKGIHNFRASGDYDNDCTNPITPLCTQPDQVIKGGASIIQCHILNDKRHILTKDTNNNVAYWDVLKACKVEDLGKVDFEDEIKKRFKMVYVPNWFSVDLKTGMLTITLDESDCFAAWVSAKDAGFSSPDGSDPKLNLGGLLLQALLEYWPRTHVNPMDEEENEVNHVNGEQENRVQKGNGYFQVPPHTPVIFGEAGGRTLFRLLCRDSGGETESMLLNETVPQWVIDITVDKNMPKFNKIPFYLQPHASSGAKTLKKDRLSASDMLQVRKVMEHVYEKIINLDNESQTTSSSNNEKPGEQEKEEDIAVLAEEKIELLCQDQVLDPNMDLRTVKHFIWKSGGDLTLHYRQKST
- PROTOCOL DETAILS: In-vitro enzymatic activity on USP1, second experimental method (60 min incubation)
- Assay type: biochemical
- MEASUREMENT SETUP: incubation at room temperature 60 minutes, read-out: Inhibitory activities on USP-1, IC50
Would you please state pIC50, meaning minus log10 of the concentration in mol/L, as a bare number?

Use these answered entries as a reference point.
COMPOUND | pIC50
Cc1cnn(C(C)C)c1-c1nc2c3c(nn(Cc4ccc(-c5nc(C(F)(F)F)cn5C(C)C)cc4)c3n1)CCC2 [Compound 19] | 8.36
[2H]C([2H])([2H])Oc1ncnc(C2CC2)c1-c1nc2c3c(nn(Cc4ccc(-c5nc(C(F)(F)F)cn5C(C)C)cc4)c3n1)CCCC2 [Compound 17-1] | 8.18
[2H]C([2H])([2H])Oc1ncnc(C2CC2)c1-c1nc2c3c(nn(Cc4ccc(-c5nc(C(F)(F)F)cn5C)cc4)c3n1)CCC2 [Compound 1-1] | 7.89

Exercise: Determine from records and report pIC50 for Cc1cnn(C(C)C)c1-c1nc2c3c(nn(Cc4ccc(-c5nc(C(F)(F)F)cn5C)cc4)c3n1)CCC2 [Compound 18]
Solution: 8.40

Exercise: Determine from records and report pIC50 for [2H]C([2H])([2H])Oc1ncnc(C2CC2)c1-c1nc2c3c(nn(Cc4ccc(-c5nc(C(F)(F)F)cn5C(C)C)cc4)c3n1)CCC2 [Compound 16-1]
Solution: 8.18

Exercise: Determine from records and report pIC50 for COc1ncnc(C2CC2)c1-c1nc2c3c(nn(Cc4ccc(-c5nc(C(F)(F)F)cn5C(C)C)cc4)c3n1)CCC2 [Compound 16]
Solution: 8.10

Exercise: Determine from records and report pIC50 for [2H]C([2H])([2H])Oc1ncnc(C2CC2)c1-c1nc2c3c(nn(Cc4ccc(-c5nc(C(F)(F)F)cn5C)cc4)c3n1)CCCC2 [Compound 11-1]
Solution: 7.82

----------
- System: MDA-MB-436 cells
- PROTOCOL DETAILS: Second in-vitro cytological inhibitory activity experiment, second method, MDA-MB-436
- Type: cell-based
- MEASUREMENT SETUP: Homo sapiens, Experimental Example 3 second method, 5 mM stock, 9 concentrations
PROPERTY MEASURED: pIC50
Would you please state pIC50, meaning minus log10 of the concentration in mol/L, as a bare number?

Exercise: Determine from records and report pIC50 for Cn1cc(C(F)(F)F)nc1-c1ccc(Cn2nc3c4c(nc(-c5c(OC(F)F)ncnc5C5CC5)nc42)CCC3)cc1
Solution: 7.25

----------
- SUBJECT OF TEST: Recombinant Human His6-USP1/His6-UAF1 Complex Protein (Homo sapiens (Human))
- PROTOCOL DETAILS: In-vitro enzymatic activity on USP1, first experimental method (Ub-Rho substrate, 15 min incubation)
- Format: biochemical
- MEASUREMENT SETUP: incubation at room temperature 15 minutes, read-out: Inhibitory activities on USP-1, IC50
Quick reference for pIC50 among some compounds
Would you please state pIC50, meaning minus log10 of the concentration in mol/L, as a bare number?

Use these answered entries as a reference point.
COMPOUND | REPORTED MEASUREMENT
COc1ncnc(C2CC2)c1-c1nc2c3c(nn(Cc4ccc(-c5nc(C(F)(F)F)cn5C)cc4)c3n1)CCCC2 [Compound 11] | 7.66
COc1ncnc(C2CC2)c1-c1nc2c3c(nn(Cc4ccc(-c5nc(C(F)(F)F)cn5C)cc4)c3n1)CCC2 [Compound 1] | 7.55
Cc1cc(C(F)(F)F)nn1-c1ccc(Cn2nc3c4c(nc(-c5cccc(F)c5C(C)C)nc42)CCC3)cc1 [Compound 3] | 7.74

Now look at this one.
Exercise: Determine from records and report pIC50 for CC(C)c1c(F)cccc1-c1nc2c3c(nn(Cc4ccc(-c5nc(C(F)(F)F)cn5C)cc4)c3n1)CCC2 [Compound 2]
Solution: 8.30
